target: K-Ras G12V (Homo sapiens, UniProt P01116, G12V); assay: SOS1 catalyzed nucleotide exchange assay (GDP form K-Ras), K-Ras G12V; details: read-out: K-Ras G12V GDP Biochemical Activity (IC50)
Sequence (P01116 1-169 isoform P01116-2 G12V): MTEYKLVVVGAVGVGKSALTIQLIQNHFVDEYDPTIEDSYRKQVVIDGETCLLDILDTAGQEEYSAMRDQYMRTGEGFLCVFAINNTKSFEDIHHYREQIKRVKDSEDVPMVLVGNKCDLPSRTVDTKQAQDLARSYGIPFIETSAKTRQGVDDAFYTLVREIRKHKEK
reportedMetric: IC50 (nM)
Give bare numbers, in nM.

Would you please look over these solved cases?
C#Cc1c(F)ccc2cc(O)cc(-c3ncc4c(N5CCOC[C@@H](C)C5)nc(OC[C@@]56CCCN5C[C@H](F)C6)nc4c3F)c12 (single isomer, unassigned) [Compound 13A]; 4.08
C#Cc1c(F)ccc2cc(O)cc(-c3nc(CO)c4c(N5CCCOCC5)nc(OC[C@@]56CCCN5C[C@H](F)C6)nc4c3F)c12; 7.96
C#Cc1c(F)ccc2cc(O)cc(-c3c(Cl)cc4c(N5CCCOCC5)nc(OC[C@@]56CCCN5C[C@H](F)C6)nc4c3F)c12 (atropisomer, axis not shown; (M)) [Compound 19B]; 5.27
C#Cc1c(F)ccc2cc(O)cc(-c3ncc4c(N5CCOCC(F)(F)C5)nc(OC[C@@]56CCCN5C[C@H](F)C6)nc4c3F)c12; 1.41
C#Cc1c(F)ccc2cc(O)cc(-c3nc(C4CC4)c4c(N5CCCOCC5)nc(OC[C@@]56CCCN5C[C@H](F)C6)nc4c3F)c12; 5.81

Please state IC50 for every compound in the list that follows.
1. C#Cc1c(F)ccc2cc(O)cc(-c3ncc4c(N5CCCOCC5)nc(OCC56CCCN5C[C@@](C)(F)C6)nc4c3F)c12 (single isomer, unassigned) [Compound 32A]
2. C#Cc1c(F)ccc2cc(O)cc(-c3nc(OC4CC4)c4c(N5CCCOCC5)nc(OC[C@@]56CCCN5C[C@H](F)C6)nc4c3F)c12
3. Oc1cc(-c2ncc3c(N4CCCOCC4)nc(OC[C@@]45CCCN4C[C@H](F)C5)nc3c2F)c2c(F)c(F)ccc2c1
4. C#Cc1c(F)ccc2cc(O)cc(-c3ncc4c(N5CCOC[C@H](CC#N)C5)nc(OC[C@@]56CCCN5C[C@H](F)C6)nc4c3F)c12 (single isomer, unassigned) [Compound 14B]
5. C#Cc1c(F)ccc2cc(O)cc(-c3ncc4c(N5CC(F)COCC5C)nc(OC[C@@]56CCCN5C[C@H](F)C6)nc4c3F)c12 (some centres unmarked)
6. C#Cc1c(F)ccc2cc(O)cc(-c3ncc4c(N5CCOC[C@@H](F)C5)nc(OC[C@@]56CCCN5C[C@H](F)C6)nc4c3F)c12 (single isomer, unassigned) [Compound 12A]

1. 1.37
2. 1.69
3. 1.94
4. 0.515
5. 2.47
6. 1.48

---

system: AsPC-1 cells (K-Ras G12D); assay: 2D cell growth inhibition assay, AsPC-1; type: cell-based; settings: Homo sapiens, ASPC1, 144 h, AsPC-1, K-Ras G12D, 6 days, absolute IC50
Rule: IC50 below 300 nM gives Yes. Equal to or above 300 nM gives No.

Past entries and their recorded results:
C#Cc1c(F)ccc2cc(O)cc(-c3ncc4c(N5CC(OC)COCC5C)nc(OC[C@@]56CCCN5C[C@H](F)C6)nc4c3F)c12 (stereo partly drawn); No
C#Cc1c(F)ccc2cc(O)cc(-c3ncc4c(N5CC(C)COCC5C)nc(OC[C@@]56CCCN5C[C@H](F)C6)nc4c3F)c12 (stereo partly drawn); No
C#Cc1c(F)ccc2cc(O)cc(-c3nc(C(F)F)c4c(N5CCCOCC5)nc(OC[C@@]56CCCN5C[C@H](F)C6)nc4c3F)c12; No
C#Cc1c(F)ccc2cc(O)cc(-c3ncc4c(N5CCOC[C@H](OC)C5)nc(OC[C@@]56CCCN5C[C@H](F)C6)nc4c3F)c12 (single isomer, unassigned) [Compound 49B]; No
C#Cc1c(C)ccc2cc(O)cc(-c3ncc4c(N5CCCOCC5)nc(OC[C@@]56CCCN5C[C@H](F)C6)nc4c3F)c12; Yes

Say whether its IC50 is strictly beneath 300 nM. Entry: C#Cc1c(F)ccc2cc(O)cc(-c3nc(OC(C)C)c4c(N5CCCOCC5)nc(OC[C@@]56CCCN5C[C@H](F)C6)nc4c3F)c12
Yes
